# Assayed System: UniProtKB P25090
# Measurement Protocol: FLIPR Ca+2 response in HEK-Gα16 cells stably expressing the human FPR2 receptor
# Format: cell-based
# Parameters: unit not given here
# Settings: Table 4; value in brackets, given mostly as fraction
Assignment: determine reported FPR2 (% eff) for the given compounds.
Enter the number alone.

Form field, FPR2 (% eff) with UniProtKB P25090, item CC1(CCc2cccc(F)c2)NC(=O)N(NC(=O)Nc2ccc(Br)cc2)C1=O (centres unmarked) [Compound 83] : 1.0

Here CS(=O)(=O)c1ccc(NC(=O)Nc2ccc3c(c2)C(=O)N(CCc2c[nH]cn2)C(c2ccc(C#N)cc2)C3)cc1 (centres unmarked) [Compound 19] was tested on UniProtKB P25090, and its FPR2 (% eff) came to 1.00

Readout FPR2 (% eff) for Cc1ccc(CCC2(C)NC(=O)N(NC(=O)Nc3ccc(Br)cc3)C2=O)o1 (centres unmarked) [Compound 97] , test system UniProtKB P25090, was 0.95

Fill in: UniProtKB P25090 FPR2 (% eff) for CS(=O)(=O)c1ccc(NC(=O)Nc2ccc3c(c2)C(=O)N(CCCN)C(c2ccc(C#N)cc2)C3)cc1 (centres unmarked) [Compound 18] = 0.86

Entry CCC(CC)(NC(=O)Nc1ccc(Br)cc1)C(=O)NCC(=O)O [Compound 113] : FPR2 (% eff) on UniProtKB P25090 = 100

Entry CCC[C@H](NC(=O)[C@H](CC(C)C)NC(=O)Nc1ccc(Br)cc1)C(N)=O [Compound 102] under UniProtKB P25090 had FPR2 (% eff) of 0.99

// compound CSc1ccc(NC(=O)Nc2ccc3c(c2)C(=O)N(CCCN)C(c2ccc(C#N)cc2)C3)cc1 (centres unmarked) [Compound 16] , assay UniProtKB P25090, FPR2 (% eff) value: 0.70

Item CC(C)C[C@H](NC(=O)Nc1ccc(Br)cc1)C(=O)NCc1nnn[nH]1 [Compound 104] ; assay system UniProtKB P25090; FPR2 (% eff) reported as 0.81

Case CC1(CCc2ccc(F)cc2)NC(=O)N(NC(=O)Nc2ccc(Br)cc2)C1=O (centres unmarked) [Compound 82] , UniProtKB P25090, FPR2 (% eff) recorded as 1.0

Item O=C(Nc1ccc(Br)cc1)NC(Cc1ccccc1)C(=O)NC1CCCCNC1=O (centres unmarked) [Compound 10] ; assay system UniProtKB P25090; FPR2 (% eff) reported as 0.89

FPR2 (% eff) on UniProtKB P25090 for CCOP(=O)(CNC(=O)[C@@H](NC(=O)Nc1ccc(Br)cc1)[C@@H](C)CC)OCC [Compound 114] is 1.0

Entry O=C(O)C1C(C(=O)Nc2ccc(Br)cc2)C2C=CC1C21CC1 (centres unmarked) [Compound 12] ; assay system UniProtKB P25090; FPR2 (% eff) recorded at 0.97

Entry CC(C)C[C@H](NC(=O)Nc1ccc(Br)cc1)C(=O)NC(C)(C)C(=O)O [Compound 6] under UniProtKB P25090 had FPR2 (% eff) of 0.91

// returns FPR2 (% eff) for CCC1(CCc2ccccc2C(=O)O)NC(=O)N(NC(=O)Nc2ccc(Br)cc2)C1=O (centres unmarked) [Compound 143] with UniProtKB P25090; value = 1.0

The observed FPR2 (% eff) for CC(C)C[C@H](NC(=O)Nc1ccc(Br)cc1)C(=O)NCCO [Compound 75] when tested with UniProtKB P25090 stands at 0.76

Reported FPR2 (% eff) (UniProtKB P25090) for entry CCC1(CCc2ccccc2C(=O)O)NC(=O)N(NC(=O)Nc2ccc(Br)cc2F)C1=O (centres unmarked) [Compound 146] is 1.0

The value of FPR2 (% eff) recorded for CC[C@H](C)[C@H](NC(=O)Nc1ccc(Br)cc1)C(=O)NCC(=O)O [Compound 3] when tested on UniProtKB P25090 reads 1.0

====

# Assayed System: human FPR2 receptor (Homo sapiens (Human), UniProt P25090)
# Sequence (P25090 whole entry): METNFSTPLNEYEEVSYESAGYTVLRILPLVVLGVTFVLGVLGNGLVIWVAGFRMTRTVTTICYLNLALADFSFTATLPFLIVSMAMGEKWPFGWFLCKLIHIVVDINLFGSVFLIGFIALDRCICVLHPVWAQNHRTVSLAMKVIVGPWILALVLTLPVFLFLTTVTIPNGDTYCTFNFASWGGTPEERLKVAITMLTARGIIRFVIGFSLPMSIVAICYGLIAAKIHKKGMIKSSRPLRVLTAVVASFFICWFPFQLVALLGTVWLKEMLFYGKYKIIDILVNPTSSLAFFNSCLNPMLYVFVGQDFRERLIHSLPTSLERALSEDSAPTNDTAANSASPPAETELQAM
# Measurement Protocol: FLIPR Ca+2 response in HEK-Gα16 cells stably expressing the human FPR2 receptor
# Type: cell-based
# Design: unit not given here
# Settings: Table 4; value in brackets, given mostly as fraction
For each record, write down the corresponding FPR2 (% eff).
Number only, please.

Field FPR2 (% eff) (entry CC1(CCc2ccccc2F)NC(=O)N(NC(=O)Nc2ccc(Br)cc2)C1=O (stereo not drawn) ) reads 99

The recorded FPR2 (% eff) for "CC[C@H](C)[C@H](NC(=O)Nc1ccc(Br)cc1F)C(=O)O" is 0.96

Entry CC1(CCc2ccccc2O)NC(=O)N(NC(=O)Nc2ccc(Br)cc2F)C1=O (stereo not drawn) ; FPR2 (% eff) = 0.91

Lab note: NC(=O)C1C(C(=O)Nc2ccc(I)cc2)C2C=CC1C21CC1 (stereo not drawn) gave FPR2 (% eff) of 0.90

The molecule "CCOP(=O)(CNC(=O)[C@H](Cc1ccccc1)NC(=O)Nc1ccc(Br)cc1)OCC" showed FPR2 (% eff) equal to 0.93

Value of measured FPR2 (% eff) for the entry CC(C)C1(CO)NC(=O)N(NC(=O)Nc2ccc(Br)cc2)C1=O (stereo not drawn) : 0.86

The recorded FPR2 (% eff) for "CC(C)C[C@H](NC(=O)Nc1ccc(Br)cc1)C(=O)N(C)CC(=O)O" is 1.0

response.value for O=C(O)C1C(C(=O)Nc2ccc(I)cc2)C2C=CC1C21CC1 (stereo not drawn) (field: FPR2 (% eff)) = 1.00

response.value for "O=C(Nc1ccc(Br)cc1)NN1C(=O)NC2(CCCCC2)C1=O" (field: FPR2 (% eff)) = 1.0

====

# Assayed System: human FPR2 receptor (Homo sapiens (Human), UniProt P25090)
# Measurement Protocol: FLIPR Ca+2 response in HEK-Gα16 cells stably expressing the human FPR2 receptor
# Type: cell-based
# Parameters: unit not given here
# Settings: Table 4; value in brackets, given mostly as fraction
Measurement Kind: FPR2 (% eff)
Keep it simple and answer with nothing but the number.

response.value for CSc1ccc(NC(=O)Nc2ccc3c(c2)C(=O)N(CCc2c[nH]cn2)C(c2ccco2)C3)cc1 (centres unmarked) (field: FPR2 (% eff)) = 0.83

Briefly, FPR2 (% eff) measured for "CCC[C@H](NC(=O)[C@H](CC(C)C)NC(=O)Nc1ccc(Br)cc1)C(=O)O" : 0.95

Kindly note the recorded FPR2 (% eff) for CC(C)C1(CC(=O)NCCC(=O)O)NC(=O)N(NC(=O)Nc2ccc(Br)cc2F)C1=O (centres unmarked) , which is 1.0

Lab note: "O=C(O)CNC(=O)[C@H](Cc1ccccc1)NC(=O)Nc1ccc(Br)cc1" gave FPR2 (% eff) of 0.99

Please fill in: FPR2 (% eff) reported for "CC(C)C[C@H](NC(=O)Nc1ccc(I)cc1)C(=O)O" = 0.93

For reference, reported FPR2 (% eff) for "CCC[C@H](NC(=O)Nc1ccc(Br)cc1F)C(=O)NCC(=O)O" stands at 0.91

For CSc1ccc(NC(=O)C2C(C(N)=O)C3CCC2C3(C)C)cc1 (centres unmarked) the compound record lists FPR2 (% eff) as 0.85

// recorded FPR2 (% eff) for "CC[C@H](C)[C@H](NC(=O)Nc1ccc(Br)cc1)C(=O)NCC(N)=O" : 0.91

"CC(C)C[C@H](NC(=O)Nc1ccc(Br)cc1)C(=O)NCC(=O)N(C)C" yielded FPR2 (% eff) of 0.99

Input CSc1ccc(NC(=O)Nc2ccc3c(c2)C(=O)N(CCc2c[nH]cn2)C(c2ccc(C#N)cc2)C3)cc1 (centres unmarked) . Output FPR2 (% eff): 0.92

Recorded FPR2 (% eff) (compound CCC1(CCc2ccccc2)NC(=O)N(NC(=O)Nc2ccc(Br)cc2)C1=O (centres unmarked) ): 0.96

FPR2 (% eff) reported for this compound CC1(CCc2ccc(O)cc2)NC(=O)N(NC(=O)Nc2ccc(Br)cc2F)C1=O (centres unmarked) : 0.85

Reported FPR2 (% eff) of "CSc1ccc(NC(=O)N[C@@H](CC(C)C)C(=O)O)cc1" : 0.92

// sample "CC(C)C[C@H](NC(=O)Nc1ccc(Br)cc1)C(=O)NC(CO)CO" , its FPR2 (% eff) was 0.96

Consider "CC[C@H](C)[C@H](NC(=O)Nc1ccc(Br)cc1)C(=O)NCC(C)=O" . Its measured FPR2 (% eff) is 0.97

Recorded FPR2 (% eff) (compound "CCC1(CC)NC(=O)N(NC(=O)Nc2ccc(Br)cc2)C1=O" ): 0.98

FPR2 (% eff) reading for CS(=O)(=O)c1ccc(NC(=O)Nc2ccc3c(c2)C(=O)N(CCc2c[nH]cn2)C(c2ccc(Cl)cn2)C3)cc1 (centres unmarked) : 0.99

====

# Assayed System: human FPR2 receptor (Homo sapiens (Human), UniProt P25090)
# Measurement Protocol: FLIPR Ca+2 response in HEK-Gα16 cells stably expressing the human FPR2 receptor
# Type: cell-based
# Design: unit not given here
# Settings: Table 4; value in brackets, given mostly as fraction
Measurement Kind: FPR2 (% eff)
// no unit, no text: just the number

The value of FPR2 (% eff) measured for the compound CC(C)C[C@H](NC(=O)Nc1ccc(Br)cc1)C(=O)N[C@H](C)CO [Compound 96] turned out to be 1.0

Looking up CC1(CCc2cccs2)NC(=O)N(NC(=O)Nc2ccc(Br)cc2)C1=O (stereo not shown) [Compound 88] , I see its FPR2 (% eff) listed as 0.94

// CC[C@H](C)[C@H](NC(=O)Nc1ccc(Br)cc1F)C(=O)NCC(N)=O [Compound 62] : FPR2 (% eff) value = 100

Just so you know, measured FPR2 (% eff) for CCOP(=O)(O)CNC(=O)[C@H](Cc1ccccc1)NC(=O)Nc1ccc(Br)cc1 [Compound 126] came out at 1.0

Item: C[S+]([O-])c1ccc(NC(=O)Nc2ccc3c(c2)C(=O)N(CCc2c[nH]cn2)C(c2ccc(F)cn2)C3)cc1 (stereo not shown) [Compound 24] | FPR2 (% eff): 0.93

Consider NC(=O)C1C(C(=O)Nc2ccc(Br)cc2)C2CCC1C21CC1 (single isomer, unassigned; (-)) [Compound 45] . Its measured FPR2 (% eff) is 0.91

Form: compound = CC(C)C1(C(C)C)NC(=O)N(NC(=O)Nc2ccc(Br)cc2)C1=O [Compound 64] ; FPR2 (% eff) = 1.0
